# Tested on: HCT-116 colon
# assay-comment: NCI-60 one-dose screen, 48 h
# particulars: 10 µM unless noted
Compounds without any hit were thinned out: in the full panel of roughly 83,000, 20% have a hit. Calls of active or inactive are those of the source. Rule for the calls: active = growth percent below 10; inactive = the rest.
Your response should consist of one outcome taken from active, inactive

Completed entries (count: 7):
- entry-smiles: "c1cnc2c(-c3nc4ccc5[nH]ncc5c4c4c3CCCC4)c[nH]c2c1"
  label: "active"
- entry-smiles: "CCc1ccccc1-n1c(-c2ccc(OC)cc2)cc(-c2ccc(OC)cc2)c(C#N)c1=O"
  label: "inactive"
- entry-smiles: "COc1ccc(C(=O)C/C(=C\\c2ccc(Cl)cc2)C(=O)NCc2ccccc2)cc1"
  label: "inactive"
- entry-smiles: "N#CC(C#N)N=Nc1ccc(Br)cc1"
  label: "inactive"
- entry-smiles: "COc1ccc(CN2c3ccccc3Sc3ccccc32)cc1F"
  label: "active"
- entry-smiles: "O=C(/C=C/c1ccccc1)Nc1ncc(Cc2ccccc2Cl)s1"
  label: "inactive"
- entry-smiles: "COC(=O)CC[C@@H]1O[C@@H](c2cccc(C(F)(F)F)c2)[C@@H](O)[C@H]1O"
  label: "inactive"

Outcome? O=C(Nc1ccccc1)Nc1ncnc2c1ncn2-c1ccc(Cl)cc1
inactive
